Assay: NCI Yeast Anticancer Drug Screen. Data for the mlh1 rad18 strain (AID 175)
Details: S. cerevisiae mlh1 rad18 strain growth inhibition; at 50.0 µM
Protocol: Growth inhibition of yeast strains with defined genetic alterations is measured as a screen for potential anti-cancer activity. Selected strains with alterations in DNA damage repair or cell cycle control were exposed to compounds and growth inhibition was measured relative to vehicle treated controls. The strain used in this assay is mlh1 rad18
The panel holds about 79,000 compounds, 15% with a hit somewhere; the sample as a whole holds those more often. Activity calls are given as the source filed them. No stated cut-off is given here; in the data, active means growth inhibition above about 70%; inactive means the rest.
Answer with one of the outcomes 1 (active), 0 (inactive)

>  <compound>
CCCCCC[C@@H](O)[C@@H]1C2=C(C[C@H]([C@H](O)[C@@H]3CC=CC(=O)O3)CC3=C(C(=O)OC3=O)[C@@H]1O)C(=O)OC2=O

>  <assigned.label>
0

$$$$

[Q] Status in this test for NC(=O)C1(Cl)CCCCC1 ?
[A] 0

[Q] Status in this test for O=C1C=C2c3ccccc3CC(C(=O)O)C2CC1 (configuration not stated) ?
[A] 0

[Q] Status in this test for COc1cc(C(=O)O)cc(OC)c1OC ?
[A] 0

---

Let's look at some molecules and their measured growth inhibition.
assay: NCI Yeast Anticancer Drug Screen. Data for the mlh1 rad18 strain (AID 175); details: S. cerevisiae mlh1 rad18 strain growth inhibition; at 50.0 µM; hits give high values
This is part of a sample that, as a whole, favours compounds with a hit. Of some 79,000 tested, about 15% had one in any assay.
All answers are understood in %, so give the number only.

Answered examples (10):
>  <molecule>
S=c1[nH]c2ccccc2s1.[Pb]

>  <meas.value>
90.9

$$$$
>  <molecule>
CC(C)CC(=O)[O-].N.N.N.N.N.[Co+3].[O-][Cl+3]([O-])([O-])[O-]

>  <meas.value>
-19.1

$$$$
>  <molecule>
CCNC(=S)S

>  <meas.value>
-3.75

$$$$
>  <molecule>
CCOP(=O)(OCC)C(=C(Cl)Cl)C(Cl)Cl

>  <meas.value>
49.8

$$$$
>  <molecule>
CS(=N)(=O)CCC(N)C(=O)O (configuration not stated)

>  <meas.value>
14.6

$$$$
>  <molecule>
Cc1cccc(NC(=O)CCl)c1

>  <meas.value>
19.8

$$$$
>  <molecule>
Clc1ccccc1C#[C][Hg][C]#Cc1ccccc1Cl

>  <meas.value>
19.4

$$$$
>  <molecule>
CCC[CH2][Sn]1([CH2]CCC)[O]C(=O)c2ccc(N)cc2[O]1

>  <meas.value>
89.8

$$$$
>  <molecule>
CCN(CC)C1C=CCCC1 (configuration not stated)

>  <meas.value>
-7.3

$$$$
>  <molecule>
[Br][Ni][Br].c1ccc([PH+](CC[PH+](c2ccccc2)c2ccccc2)c2ccccc2)cc1

>  <meas.value>
0.9

$$$$

[Q] Query (molecule): C[C@@H]1C[C@@H]([C@H](O)CC2CC(=O)NC(=O)C2)C(=O)[C@@H](C)C1 ; field requested: growth inhibition
[A] 92.1

[Q] Query (molecule): CC(=O)OC1=CCC2(C)C(CCC3C4CCC(OC(C)=O)C4(C)CCC32)C1=O (configuration not stated) ; field requested: growth inhibition
[A] 85.3

---

test: NCI Yeast Anticancer Drug Screen. Data for the cln2 rad14 strain (AID 165);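 further: 0% = growth equal to vehicle treated cultures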; conditions: S. cerevisiae cln2 rad14 strain, at 50.0 µM (retest, dose inferred, filed as 5.0)
Compounds without any hit were thinned out: in the full panel of roughly 79,000, 15% have a hit. Calls of active or inactive are those of the source. Rule as the data show it: active = growth inhibition above about 70%; inactive = the rest.
Answer with one of the outcomes active, inactive

>  <compound>
COC1CCCC2OC3(OC)C(OC)CCCC3OC12OC (stereo unspecified)

>  <assigned.label>
inactive

$$$$
>  <compound>
CS(=N)(=O)CCC(N)C(=O)O (stereo unspecified)

>  <assigned.label>
inactive

$$$$
>  <compound>
CCCCCCCCCCCCCC(=O)O[C@H]1CC[C@H](NC(=O)[C@H](OC)[C@H](O)[C@@H](O)[C@H](O)/C=C/C(C)C)C(=O)NC1

>  <assigned.label>
active

$$$$
>  <compound>
COC1OCCC[CH]1[Hg][Cl] (stereo unspecified)

>  <assigned.label>
active

$$$$

Query compound follows.
[Q] Status in this test for CC1=CC(=O)c2c(O)cccc2C1=O ?
[A] active

---

assay: NCI Yeast Anticancer Drug Screen. Data for the bub3 strain (AID 167); conditions: S. cerevisiae bub3 mutant strain, at 5.0 µM (retest, dose inferred, filed as 0.5), hits give high values
The panel holds about 79,000 compounds, 15% with a hit somewhere; the sample as a whole holds those more often.
Let's look at some compounds and their measured growth inhibition.
All answers are understood in %, so give the number only.

>  <compound>
C[Se]C([Se]C)=C([Se]C)[Se]C

>  <growth inhibition (%)>
5

$$$$
>  <compound>
O=C1N[C@H]2[C@H](O)[C@H](O)[C@@H](O)[C@H](O)[C@@H]2c2cc3c(c(O)c21)OCO3

>  <growth inhibition (%)>
19

$$$$
>  <compound>
CCC1CN1P(=O)(Oc1ccccc1)N1CC1CC (configuration not stated)

>  <growth inhibition (%)>
7

$$$$
>  <compound>
O=C(O)c1ccccc1.[Zn+2]

>  <growth inhibition (%)>
-8

$$$$
>  <compound>
CCCCCCC(=O)[O][Hg][c]1ccccc1

>  <growth inhibition (%)>
99

$$$$

[Q] Query (compound): Nc1nc2ncnc(N)c2nc1-c1ccc(N(CCCl)CCCl)cc1 ; field requested: growth inhibition
[A] -1

[Q] Query (compound): CCC(=O)O.[Ag] ; field requested: growth inhibition
[A] 99

---

test: NCI Yeast Anticancer Drug Screen. Data for the cln2 rad14 strain (AID 165);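 further: 0% = growth equal to vehicle treated cultures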; conditions: S. cerevisiae cln2 rad14 strain, at 50.0 µM, hits give high values
The panel holds about 79,000 compounds, 15% with a hit somewhere; the sample as a whole holds those more often.
measured.endpoint: growth inhibition (%)
All answers are understood in %, so give the number only.

Answered examples (2):
>  <molecule>
CC1(C)N=C(N)N=C(N)N1c1cccc(CCC(=O)Nc2ccc[n+](Cc3ccc(S(=O)(=O)F)cc3)c2)c1

>  <meas.value>
-17.8

$$$$
>  <molecule>
CCC[CH2][Sn]([CH2]C)([CH2]C)[CH2]C

>  <meas.value>
15.8

$$$$

[Q] Query (molecule): CC(=O)c1cc(CN(CCCl)CCCl)c(O)c(CN(CCCl)CCCl)c1O ; field requested: growth inhibition
[A] 63.1

[Q] Query (molecule): C/C(=N/NC(N)=S)c1ccc(Cl)cc1 ; field requested: growth inhibition
[A] 92.5

[Q] Query (molecule): COc1cc(C(c2c(O)c3ccccc3oc2=O)c2c(O)c3ccccc3oc2=O)cc(OC)c1OC ; field requested: growth inhibition
[A] 0.9

[Q] Query (molecule): COc1ccc(C(C)N)cc1 (stereo not drawn) ; field requested: growth inhibition
[A] -11.2

[Q] Query (molecule): CC1CCC2NCCNC2C1 (stereo not drawn) ; field requested: growth inhibition
[A] 5.35

---

test: NCI Yeast Anticancer Drug Screen. Data for the sgs1 mgt1 strain (AID 161);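 further: 0% = growth of cultures given vehicle only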; conditions: S. cerevisiae sgs1 mgt1 strain, at 50.0 µM (retest, dose inferred, filed as 5.0), hits give high values
The panel holds about 79,000 compounds, 15% with a hit somewhere; the sample as a whole holds those more often.
Let's look at some molecules and their measured growth inhibition.
All answers are understood in %, so give the number only.

Answered examples (4):
>  <molecule>
C[Se]C([Se]C)=C([Se]C)[Se]C

>  <measured.endpoint>
growth inhibition

>  <meas.value>
99

$$$$
>  <molecule>
O=[N+]([O-])/C=C\c1ccc2c(c1)OCO2

>  <measured.endpoint>
growth inhibition

>  <meas.value>
99

$$$$
>  <molecule>
COc1cc(C(=O)[O][Hg][CH2]C2CC(O)CC([CH2][Hg][O]C(=O)c3cc(OC)c(OC)c(OC)c3)O2)cc(OC)c1OC (stereo not drawn)

>  <measured.endpoint>
growth inhibition

>  <meas.value>
99

$$$$
>  <molecule>
CCC1(O)C(=O)OCc2c1cc1n(c2=O)Cc2cc3cc4c(cc3nc2-1)OCO4 (stereo not drawn)

>  <measured.endpoint>
growth inhibition

>  <meas.value>
96

$$$$

[Q] Query (molecule): [N-]=[N+]=NC1(N=[N+]=[N-])C(=O)NN=C(c2ccccc2)C1=O (stereo not drawn) ; field requested: growth inhibition
[A] 83

[Q] Query (molecule): C/C(=N/NC(N)=S)c1ccc(Cl)cc1 ; field requested: growth inhibition
[A] 93

---

test: NCI Yeast Anticancer Drug Screen. Data for the cln2 rad14 strain (AID 165);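 further: 0% = growth equal to vehicle treated cultures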; details: S. cerevisiae cln2 rad14 strain, at 50.0 µM, hits give high values
The panel holds about 79,000 compounds, 15% with a hit somewhere; the sample as a whole holds those more often.
Parameter threshold = 50%. Response is TRUE when growth inhibition meets or exceeds it, else FALSE.

Consider the following illustrative entries.
>  <compound>
O.O.O=C(O)CC(=O)O.[NH-]C1CCCCC1[NH-].[Pt+2] (stereo not given)

>  <assigned.label>
FALSE

$$$$
>  <compound>
C#CCN1C(=O)N(CC#C)C(=O)C(CC#C)(C(CC=C)c2ccccc2)C1=O (stereo not given)

>  <assigned.label>
TRUE

$$$$
>  <compound>
O=C1NC(=O)C2(OC3c4ccccc4C=CN3C3=C2C(=O)CCC3)C(=O)N1 (stereo not given)

>  <assigned.label>
TRUE

$$$$
>  <compound>
C1CN1[PH+](N1CC1)N1CC1.[C-]#[O+].[C-]#[O+].[C-]#[O+].[C-]#[O+].[C-]#[O+].[Cr]

>  <assigned.label>
FALSE

$$$$

Query compound follows.
[Q] Check the entry CCOc1ccc(P2(=S)SP(=S)(c3ccc(OCC)cc3)S2)cc1 (stereo not given) : does growth inhibition equal or exceed 50%?
[A] FALSE
